TESTED_SYSTEM: 11-beta-hydroxysteroid dehydrogenase 1 (Homo sapiens, UniProt P28845)
Sequence (P28845 whole entry): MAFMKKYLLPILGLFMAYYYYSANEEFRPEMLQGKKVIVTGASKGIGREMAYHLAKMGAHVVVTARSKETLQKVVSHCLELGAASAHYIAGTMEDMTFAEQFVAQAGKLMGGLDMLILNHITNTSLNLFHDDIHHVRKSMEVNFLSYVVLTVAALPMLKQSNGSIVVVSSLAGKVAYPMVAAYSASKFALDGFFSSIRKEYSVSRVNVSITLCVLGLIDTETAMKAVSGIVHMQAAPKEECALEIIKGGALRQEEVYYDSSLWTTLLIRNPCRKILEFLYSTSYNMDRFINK
EXPERIMENTAL_ENDPOINT: pIC50
The meaning of pIC50 here: minus log10 of the concentration in molar units.

// query Find pIC50 (11-beta-hydroxysteroid dehydrogenase 1 (Homo sapiens, UniProt P28845)) for the entry O=C(NC1C2CC3CC(C2)CC1C3)C1CCCCC1 (stereo unspecified)
// result 7.07
